- Tgt: human recombinant his-tagged HSP90α (Homo sapiens, UniProt P07900)
- Construct: purchased Prospec Technogene #HSP90
- Test summary: HSP90 enzyme assay (HTRF, competition with biotinylated Geldanamycin)
- Type: binding
- Study conditions: compound as drawn (ester for the ester compound); read-out: Enzyme assay: Inhibition of Hsp90 (IC50 nM)
Observed property: IC50 (nM)

INSERT INTO measurements (compound, observed_property, measurement) VALUES
  ('CC(C)c1cc(C(=O)N2CCC(N[C@@H](COC(C)(C)C)C(=O)OC3CCCC3)CC2)c(O)cc1O [Example 17]', 'IC50', 42),
  ('CC1CCN(C(=O)c2cc(C(C)C)c(O)cc2O)CC1 [CHR-7310, reference compound]', 'IC50', 8);
